details: 358.15 K, Wilhelmy-plate method
Measurement label: surface tension liquid-gas (mN/m)

Reference set, count: 5
For the compound CCOC(=O)Cc1ccccc1 [ethyl phenylacetate] , give its reported surface tension liquid-gas. 28.6

For the compound CCC(=O)OCc1ccccc1 [benzyl propanoate] , give its reported surface tension liquid-gas. 28.5

For the compound CC(=O)OCCC(C)C [3-methylbutyl ethanoate] , give its reported surface tension liquid-gas. 18.7

For the compound CCOC(=O)c1ccccc1O [ethyl 2-hydroxybenzoate] , give its reported surface tension liquid-gas. 30.2

For the compound CC(=O)OCc1ccccc1 [benzyl ethanoate] , give its reported surface tension liquid-gas. 30.1

I: CCOC(=O)c1ccccc1 [ethyl benzoate]
II: CCOC(=O)CC(C)C [ethyl 3-methylbutanoate]
Between I and II , whose recorded surface tension liquid-gas is greater? Lab note: record the label of whichever item you select. I
(I: 28.4 mN/m, II: 17.6 mN/m)

P: COC(=O)c1ccccc1 [methyl benzoate]
Q: CCCC(=O)OCCC(C)C [3-methylbutyl butanoate]
Which entry shows the lesser value of surface tension liquid-gas here, P or Q ? Lab note: record the label of whichever item you select. Q
(Q: 19.7 mN/m, P: 30.4 mN/m)

###

experiment: refractive index (Na D-line) (dimensionless); details: 328.15 K; 101.33 kPa; Liquid; Standard Abbe refractometry
Measurement label: refractive index

For the compound CCOC(=O)c1ccccc1O [ethyl 2-hydroxybenzoate] , give its reported refractive index. 1.50646

For the compound CCOC(=O)c1ccccc1 [ethyl benzoate] , give its reported refractive index. 1.48946

For the compound CC(=O)OCCC(C)C [3-methylbutyl ethanoate] , give its reported refractive index. 1.38447

For the compound CCOC(=O)Cc1ccccc1 [ethyl phenylacetate] , give its reported refractive index. 1.48149

For the compound CCCCCCCC(=O)OCC [ethyl octanoate] , give its reported refractive index. 1.40294

For the compound COC(=O)c1ccccc1 [methyl benzoate] , give its reported refractive index. 1.50058

###

settings: 348.15 K; 101.33 kPa; Liquid
Measurement label: mass density (kg/m3)

For the compound CC(=O)OCc1ccccc1 [benzyl ethanoate] , give its reported mass density. 1003.89

For the compound CCC(=O)OCc1ccccc1 [benzyl propanoate] , give its reported mass density. 981.49

For the compound CCOC(=O)Cc1ccccc1 [ethyl phenylacetate] , give its reported mass density. 980.28

For the compound CCCCCC(=O)OCC [ethyl hexanoate] , give its reported mass density. 818.99

For the compound CCOC(=O)CC(C)=O [ethyl 3-oxobutanoate] , give its reported mass density. 971.05

For the compound CC(=O)OCCC(C)C [3-methylbutyl ethanoate] , give its reported mass density. 818.07

For the compound CCCC(=O)OCCC(C)C [3-methylbutyl butanoate] , give its reported mass density. 813.19

For the compound CCOC(=O)c1ccccc1 [ethyl benzoate] , give its reported mass density. 994.7

For the compound CCCCCCCC(=O)OCC [ethyl octanoate] , give its reported mass density. 818.58

For the compound CCOC(=O)CC(C)C [ethyl 3-methylbutanoate] , give its reported mass density. 809.2

For the compound COC(=O)c1ccccc1 [methyl benzoate] , give its reported mass density. 1035.23

For the compound CCOC(=O)c1ccccc1O [ethyl 2-hydroxybenzoate] , give its reported mass density. 1076.6

###

experiment: refractive index (Na D-line) (dimensionless); conditions: 288.15 K; 101.33 kPa; Liquid; Standard Abbe refractometry
Measurement label: refractive index

For the molecule CCOC(=O)CC(C)C [ethyl 3-methylbutanoate] , give its reported refractive index. 1.3988

For the molecule CCOC(=O)CC(C)=O [ethyl 3-oxobutanoate] , give its reported refractive index. 1.42091

For the molecule CCC(=O)OCc1ccccc1 [benzyl propanoate] , give its reported refractive index. 1.4995

For the molecule CCOC(=O)Cc1ccccc1 [ethyl phenylacetate] , give its reported refractive index. 1.49971

For the molecule CC(=O)OCc1ccccc1 [benzyl ethanoate] , give its reported refractive index. 1.50439

For the molecule CCCCCCCC(=O)OCC [ethyl octanoate] , give its reported refractive index. 1.41991

###

details: 288.15 K; 101.33 kPa; Liquid; Capillary tube (Ostwald / Ubbelohde) method
Measurement label: viscosity (mPa·s)

Reference set, count: 3
For the molecule CCOC(=O)Cc1ccccc1 [ethyl phenylacetate] , give its reported viscosity. 3.002

For the molecule CC(=O)OCCC(C)C [3-methylbutyl ethanoate] , give its reported viscosity. 0.94

For the molecule COC(=O)c1ccccc1 [methyl benzoate] , give its reported viscosity. 2.297

A: CCCCCCCC(=O)OCC [ethyl octanoate]
B: CCC(=O)OCc1ccccc1 [benzyl propanoate]
Between A and B , whose recorded viscosity is greater? Lab note: record the label of whichever item you select. B
(B: 2.55 mPa·s, A: 1.697 mPa·s)

###

assay: refractive index (Na D-line) (dimensionless); settings: 318.15 K; 101.33 kPa; Liquid; Standard Abbe refractometry
Measurement label: refractive index

For the compound CCOC(=O)CC(C)=O [ethyl 3-oxobutanoate] , give its reported refractive index. 1.40803

For the compound CCCC(=O)OCCC(C)C [3-methylbutyl butanoate] , give its reported refractive index. 1.39927

For the compound CCOC(=O)Cc1ccccc1 [ethyl phenylacetate] , give its reported refractive index. 1.48583

For the compound COC(=O)c1ccccc1 [methyl benzoate] , give its reported refractive index. 1.50514

For the compound CCCCCC(=O)OCC [ethyl hexanoate] , give its reported refractive index. 1.39597

For the compound CCOC(=O)c1ccccc1 [ethyl benzoate] , give its reported refractive index. 1.49391

For the compound CCC(=O)OCc1ccccc1 [benzyl propanoate] , give its reported refractive index. 1.48611

For the compound CCCCCCCC(=O)OCC [ethyl octanoate] , give its reported refractive index. 1.40702

For the compound CCOC(=O)CC(C)C [ethyl 3-methylbutanoate] , give its reported refractive index. 1.38458

For the compound CC(=O)OCCC(C)C [3-methylbutyl ethanoate] , give its reported refractive index. 1.38895

For the compound CCOC(=O)c1ccccc1O [ethyl 2-hydroxybenzoate] , give its reported refractive index. 1.51116

For the compound CC(=O)OCc1ccccc1 [benzyl ethanoate] , give its reported refractive index. 1.49064

###

conditions: 288.15 K, Wilhelmy-plate method
Measurement label: surface tension liquid-gas (mN/m)

I: CCC(=O)OCc1ccccc1 [benzyl propanoate]
II: CCOC(=O)CC(C)C [ethyl 3-methylbutanoate]
Which entry shows the lesser value of surface tension liquid-gas here, I or II ? Lab note: record the label of whichever item you select. II

###

experiment: refractive index (Na D-line) (dimensionless); settings: 298.15 K; 101.33 kPa; Liquid; Standard Abbe refractometry
Measurement label: refractive index

For the compound CCOC(=O)Cc1ccccc1 [ethyl phenylacetate] , give its reported refractive index. 1.49513

For the compound CCOC(=O)c1ccccc1O [ethyl 2-hydroxybenzoate] , give its reported refractive index. 1.52022

For the compound CCCCCC(=O)OCC [ethyl hexanoate] , give its reported refractive index. 1.40504

For the compound COC(=O)c1ccccc1 [methyl benzoate] , give its reported refractive index. 1.51467

For the compound CCOC(=O)CC(C)C [ethyl 3-methylbutanoate] , give its reported refractive index. 1.39401

For the compound CCCCCCCC(=O)OCC [ethyl octanoate] , give its reported refractive index. 1.4156

For the compound CCC(=O)OCc1ccccc1 [benzyl propanoate] , give its reported refractive index. 1.49498

For the compound CCOC(=O)CC(C)=O [ethyl 3-oxobutanoate] , give its reported refractive index. 1.41658

For the compound CC(=O)OCCC(C)C [3-methylbutyl ethanoate] , give its reported refractive index. 1.39836

For the compound CCOC(=O)c1ccccc1 [ethyl benzoate] , give its reported refractive index. 1.50328

For the compound CCCC(=O)OCCC(C)C [3-methylbutyl butanoate] , give its reported refractive index. 1.40815

For the compound CC(=O)OCc1ccccc1 [benzyl ethanoate] , give its reported refractive index. 1.49982

###

conditions: 358.15 K; 101.33 kPa; Liquid
Measurement label: mass density (kg/m3)

For the compound CC(=O)OCCC(C)C [3-methylbutyl ethanoate] , give its reported mass density. 807.85

For the compound CCOC(=O)c1ccccc1O [ethyl 2-hydroxybenzoate] , give its reported mass density. 1066.83

For the compound CCOC(=O)CC(C)=O [ethyl 3-oxobutanoate] , give its reported mass density. 960.46

For the compound CCCC(=O)OCCC(C)C [3-methylbutyl butanoate] , give its reported mass density. 803.96

For the compound CCOC(=O)CC(C)C [ethyl 3-methylbutanoate] , give its reported mass density. 798.73

For the compound COC(=O)c1ccccc1 [methyl benzoate] , give its reported mass density. 1025.6

For the compound CC(=O)OCc1ccccc1 [benzyl ethanoate] , give its reported mass density. 994.45

For the compound CCCCCC(=O)OCC [ethyl hexanoate] , give its reported mass density. 809.34

For the compound CCOC(=O)c1ccccc1 [ethyl benzoate] , give its reported mass density. 985.31

For the compound CCCCCCCC(=O)OCC [ethyl octanoate] , give its reported mass density. 810.05

For the compound CCOC(=O)Cc1ccccc1 [ethyl phenylacetate] , give its reported mass density. 970.95

For the compound CCC(=O)OCc1ccccc1 [benzyl propanoate] , give its reported mass density. 972.25
